Origin of measurements: ChEMBL document CHEMBL4706601

Below, each entry is listed with its recorded pEC50.
# target entity: Cannabinoid receptor 2 (Homo sapiens, UniProt P34972)
# Sequence (P34972 whole entry): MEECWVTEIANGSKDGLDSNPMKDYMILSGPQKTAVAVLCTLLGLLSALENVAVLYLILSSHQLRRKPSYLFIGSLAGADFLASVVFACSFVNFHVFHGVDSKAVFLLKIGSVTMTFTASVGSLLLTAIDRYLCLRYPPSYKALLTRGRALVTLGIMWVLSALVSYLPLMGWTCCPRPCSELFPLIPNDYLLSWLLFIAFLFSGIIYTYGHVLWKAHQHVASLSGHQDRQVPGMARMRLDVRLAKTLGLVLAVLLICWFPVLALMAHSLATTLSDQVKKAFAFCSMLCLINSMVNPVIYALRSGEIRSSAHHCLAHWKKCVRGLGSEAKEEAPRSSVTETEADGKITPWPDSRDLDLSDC
# measurement notes: Agonist activity at human CB2R expressed in CHO cell membranes after 90 mins by [35S]GTPgammaS assay
# Format: functional, Membrane
Scale note: pEC50 = -log10(concentration in M).

Exercise: Please look at this molecule and report its pEC50: Cc1ccc(C(=O)NC2CCCCCC2)c(=O)n1Cc1ccc(F)cc1
Solution: 8.38

Exercise: Quick one: give measured pEC50 for Cc1c(Cl)cc(C(=O)NC2CCCCCC2)c(=O)n1Cc1ccc(F)cc1
Solution: 8.48

Exercise: Return pEC50 for the following molecule: Cc1c(Br)cc(C(=O)NC2CCCCCC2)c(=O)n1Cc1ccc(F)cc1
Solution: 7.93

Exercise: Determine its reported pEC50: Cc1c(F)cc(C(=O)NC2CCCCCC2)c(=O)n1Cc1ccc(F)cc1
Solution: 7.61

Exercise: Annotate the molecule Cc1ccc(C(=O)NC2CCCCCC2)c(OCc2ccc(F)cc2)n1 with its measured pEC50.
Solution: 7.93

Please turn your attention to the following entry.
Exercise: Give recorded pEC50. Cc1nc(OCc2ccc(F)cc2)c(C(=O)NC2CCCCCC2)cc1Br
Solution: 7.50

----------
# target entity: Cannabinoid receptor 2 (Homo sapiens, UniProt P34972)
# measurement notes: Inverse agonist activity at human CB2R expressed in CHO cell membranes after 90 mins by [35S]GTPgammaS assay
# Type: functional, Membrane
reported property: EC50
Put down the number, then write its unit next to it.

Exercise: Provide EC50, system Cannabinoid receptor 2 (Homo sapiens, UniProt P34972), entry Cc1c(-c2ccc(F)cc2)cc(C(=O)NC2CCCCCC2)c(=O)n1Cc1ccc(F)cc1
Solution: 0.00645 µM

Please examine the following record next.
Exercise: Report measured EC50 on Cannabinoid receptor 2 (Homo sapiens, UniProt P34972); entry: Cc1c(-c2ccccc2)cc(C(=O)NC2CCCCCC2)c(=O)n1Cc1ccc(F)cc1
Solution: 0.017 µM

----------
# target entity: Monoglyceride lipase (Homo sapiens, UniProt Q99685)
# Sequence (Q99685 whole entry): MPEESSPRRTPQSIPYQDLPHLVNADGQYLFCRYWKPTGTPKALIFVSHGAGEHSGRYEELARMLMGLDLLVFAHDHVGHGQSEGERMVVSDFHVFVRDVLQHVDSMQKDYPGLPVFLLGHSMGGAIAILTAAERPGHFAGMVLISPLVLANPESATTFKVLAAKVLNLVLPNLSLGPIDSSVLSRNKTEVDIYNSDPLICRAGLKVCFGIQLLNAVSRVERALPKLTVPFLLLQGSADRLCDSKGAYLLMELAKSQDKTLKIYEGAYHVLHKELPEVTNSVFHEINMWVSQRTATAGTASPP
# measurement notes: Inhibition of MAGL in human U937 cells using [glycerol-1,2,3-3H]2-OG as substrate preincubated for 15 mins followed by substrate addition and measured after 15 mins by liquid scintillation spectroscopy
reported property: IC50

Solved entries:
Exercise: Consider the compound Cc1c(Br)cc(C(=O)NC2CCCCCC2)c(=O)n1Cc1ccc(F)cc1 . State its measured IC50.
Solution: > 10 µM

Exercise: Please supply the value of reported IC50 for the item COc1ccc(-c2cc(C(=O)NC3CCCCCC3)c(=O)n(Cc3ccc(F)cc3)c2C)cc1
Solution: > 10 µM

Exercise: Determine its reported IC50: Cc1c(-c2ccc(F)cc2)cc(C(=O)NC2CCCCCC2)c(=O)n1Cc1ccc(F)cc1
Solution: > 10 µM

Next:
Exercise: Give the measured IC50 for Cc1c(Br)cc(C(=O)NC2CCNCC2)c(=O)n1Cc1ccc(F)cc1
Solution: > 10 µM

Exercise: Quote IC50 reported for Cc1nc(OCc2ccc(F)cc2)c(C(=O)NC2CCCCCC2)cc1Br please.
Solution: > 10 µM

----------
Listing of recorded Ki by entry.
# target entity: Cannabinoid receptor 2 (Homo sapiens, UniProt P34972)
# measurement notes: Displacement of [3H]CP55940 from recombinant human CB2R expressed in CHO cell membranes incubated for 90 mins
Express the result in nM but write the number alone.

Use these answered entries as a reference point.
Exercise: Consider the compound COc1ccc(-c2cc(C(=O)NC3CCCCCC3)c(=O)n(Cc3ccc(F)cc3)c2C)cc1 . State its measured Ki.
Solution: 26.2

Exercise: State its Ki: COc1ccc(-c2cc(C(=O)NC3CCCCCC3)c(OCc3ccc(F)cc3)nc2C)cc1
Solution: 919

Exercise: Give the value of Ki reported for the following: Cc1c(Cl)cc(C(=O)NC2CCCCCC2)c(=O)n1Cc1ccc(F)cc1
Solution: 4.3

Exercise: Quote Ki reported for Cc1nc(OCc2ccc(F)cc2)c(C(=O)NC2CCCCCC2)cc1-c1ccc(F)cc1 please.
Solution: 531

Exercise: Dear colleague, please send me the reported Ki for Cc1ccc(C(=O)NC2CCCCCC2)c(=O)n1Cc1ccc(F)cc1 when you can.
Solution: 4.7

Others:
Exercise: Give reported Ki value for Cc1ccc(C(=O)NC2CCCCCC2)c(OCc2ccc(F)cc2)n1
Solution: 33.9
